- Tested on: H460 cells
- assay: CCK-8 antiproliferation assay, H460
- particulars: Homo sapiens, NCI-H460, 48 h, read-out: IC50 (μM) H460, CCK-8, 48 h, average ± SD of three independent experiments
quantity-name: IC50 (µM)

COCCOc1cc2ncnc(Nc3cccc(-c4cn(-c5ccccc5C(F)(F)F)nn4)c3)c2cc1OCCOC [e16]	10.9

P. COCCOc1cc2ncnc(Nc3cccc(-c4cn(-c5ccc(OC)cc5OC)nn4)c3)c2cc1OCCOC [e17]
Q. COCCOc1cc2ncnc(Nc3cccc(-c4cn(-c5ccccc5OC)nn4)c3)c2cc1OCCOC [e11]
R. COCCOc1cc2ncnc(Nc3cccc(-c4cn(-c5cccc([N+](=O)[O-])c5)nn4)c3)c2cc1OCCOC [e13]
Query: List from greatest to least IC50. Response format: the labels, sorted as the prompt asks.
Response: R, Q, P
(R: 11.9 µM, Q: 4.89 µM, P: 3.18 µM)

----------
- target-system: wild-type EGFR (Homo sapiens)
- Sequence (P00533 25-1210): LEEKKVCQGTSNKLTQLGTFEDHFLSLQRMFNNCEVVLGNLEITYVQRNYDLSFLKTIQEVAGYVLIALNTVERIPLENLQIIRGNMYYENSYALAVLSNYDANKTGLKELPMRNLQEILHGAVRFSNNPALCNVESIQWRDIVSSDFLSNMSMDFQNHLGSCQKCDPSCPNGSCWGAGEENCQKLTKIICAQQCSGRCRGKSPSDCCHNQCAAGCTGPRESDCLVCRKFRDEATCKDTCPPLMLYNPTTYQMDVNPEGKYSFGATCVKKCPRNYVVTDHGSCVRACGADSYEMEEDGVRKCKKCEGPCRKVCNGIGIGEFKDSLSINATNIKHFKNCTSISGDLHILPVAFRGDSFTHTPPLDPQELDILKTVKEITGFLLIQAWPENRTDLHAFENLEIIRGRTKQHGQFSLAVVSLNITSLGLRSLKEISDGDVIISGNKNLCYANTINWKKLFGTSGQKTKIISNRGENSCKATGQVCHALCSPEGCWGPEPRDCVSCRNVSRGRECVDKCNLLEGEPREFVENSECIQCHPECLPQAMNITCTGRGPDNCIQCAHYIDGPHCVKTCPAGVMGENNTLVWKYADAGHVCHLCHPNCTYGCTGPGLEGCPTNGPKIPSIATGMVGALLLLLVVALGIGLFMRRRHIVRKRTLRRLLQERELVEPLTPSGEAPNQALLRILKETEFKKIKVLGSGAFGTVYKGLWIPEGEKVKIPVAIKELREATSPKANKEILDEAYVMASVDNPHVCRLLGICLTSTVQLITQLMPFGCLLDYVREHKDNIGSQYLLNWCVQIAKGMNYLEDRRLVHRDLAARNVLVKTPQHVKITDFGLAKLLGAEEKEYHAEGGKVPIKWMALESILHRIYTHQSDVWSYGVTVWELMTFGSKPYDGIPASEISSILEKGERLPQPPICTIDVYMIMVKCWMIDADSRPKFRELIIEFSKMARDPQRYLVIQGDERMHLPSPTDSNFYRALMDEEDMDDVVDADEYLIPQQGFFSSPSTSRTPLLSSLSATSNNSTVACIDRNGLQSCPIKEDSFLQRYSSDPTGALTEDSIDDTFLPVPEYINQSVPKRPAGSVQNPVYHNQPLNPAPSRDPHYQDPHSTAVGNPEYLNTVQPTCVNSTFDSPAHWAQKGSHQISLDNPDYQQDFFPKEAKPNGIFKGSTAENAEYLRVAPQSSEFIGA
- assay: EGFR kinase assay (ELISA)
- particulars: concentration 0.03 nM; one value per replicate column
quantity-name: inhibition at 30 pM (%)

COCCOc1cc2ncnc(Nc3cccc(-c4cn(-c5ccc(Br)cc5)nn4)c3)c2cc1OCCOC	4.76
COCCOc1cc2ncnc(Nc3cccc(-c4cn(-c5ccccc5OC)nn4)c3)c2cc1OCCOC	4.93
CCOc1cccc(-n2cc(-c3cccc(Nc4ncnc5cc(OCCOC)c(OCCOC)cc45)c3)nn2)c1	3.1
COCCOc1cc2ncnc(Nc3cccc(-c4cn(-c5ccc(C)cc5)nn4)c3)c2cc1OCCOC	8.63
COCCOc1cc2ncnc(Nc3cccc(-c4cn(-c5ccc(OC)cc5OC)nn4)c3)c2cc1OCCOC	13.7

a. COCCOc1cc2ncnc(Nc3cccc(-c4cn(Cc5ccccc5Br)nn4)c3)c2cc1OCCOC
b. COCCOc1cc2ncnc(Nc3cccc(-c4cn(CCc5ccccc5)nn4)c3)c2cc1OCCOC
c. COCCOc1cc2ncnc(Nc3cccc(-c4cn(-c5ccc(C)cc5O)nn4)c3)c2cc1OCCOC
d. COCCOc1cc2ncnc(Nc3cccc(-c4cn(-c5ccc(OC)c(OC)c5)nn4)c3)c2cc1OCCOC
Query: I would appreciate it if you could sort these 4 compounds by inhibition at 30 pM, starting from the smallest number. Response format: the labels, sorted as the prompt asks.
Response: d, b, c, a
(d: 0%, b: 3.3%, c: 5.9%, a: 11.8%)

----------
- target-system: UniProt:P00533
- assay: EGFR kinase assay (ELISA)
- particulars: concentration 30 nM; one value per replicate column; 0.03 µM
quantity-name: Inhibition

These solved cases illustrate the format of a correct answer.
COCCOc1cc2ncnc(Nc3cccc(-c4cn(Cc5ccccc5)nn4)c3)c2cc1OCCOC [e1]	34.5455
COCCOc1cc2ncnc(Nc3cccc(-c4cn(Cc5ccccc5I)nn4)c3)c2cc1OCCOC [e2]	27.2727
COCCOc1cc2ncnc(Nc3cccc(-c4cn(-c5ccccc5C(F)(F)F)nn4)c3)c2cc1OCCOC	15.748

a. COCCOc1cc2ncnc(Nc3cccc(-c4cn(-c5ccc(OC)c(OC)c5)nn4)c3)c2cc1OCCOC
b. COCCOc1cc2ncnc(Nc3cccc(-c4cn(-c5ccccc5)nn4)c3)c2cc1OCCOC
Query: Decide: a or b , by lowest recorded Inhibition. Reply briefly: the label of your chosen item.
Response: a

P. CCOc1cccc(-n2cc(-c3cccc(Nc4ncnc5cc(OCCOC)c(OCCOC)cc45)c3)nn2)c1
Q. COCCOc1cc2ncnc(Nc3cccc(-c4cn(Cc5ccccc5Br)nn4)c3)c2cc1OCCOC
R. COCCOc1cc2ncnc(Nc3cccc(-c4cn(-c5ccc(C)cc5O)nn4)c3)c2cc1OCCOC
Query: List from greatest to least Inhibition. Response format: the labels, sorted as the prompt asks.
Response: Q, R, P
(Q: 28.1106, R: 13.2075, P: 8.781)

I. COCCOc1cc2ncnc(Nc3cccc(-c4cn(-c5ccc(C)cc5)nn4)c3)c2cc1OCCOC
II. COCCOc1cc2ncnc(Nc3cccc(-c4cn(-c5ccc(OC)cc5OC)nn4)c3)c2cc1OCCOC
Query: Decide: I or II , by lowest recorded Inhibition. Reply briefly: the label of your chosen item.
Response: I

A. COCCOc1cc2ncnc(Nc3cccc(-c4cn(-c5ccccc5OC)nn4)c3)c2cc1OCCOC
B. COCCOc1cc2ncnc(Nc3cccc(-c4cn(-c5ccc(Br)cc5)nn4)c3)c2cc1OCCOC
C. COCCOc1cc2ncnc(Nc3cccc(-c4cn(CCc5ccccc5)nn4)c3)c2cc1OCCOC
Query: List from greatest to least Inhibition. Response format: the labels, sorted as the prompt asks.
Response: C, B, A
(C: 35.1792, B: 11.3139, A: 6.432)
